Reported TGI values follow for various molecules
Test system: A498 renal
protocol: NCI tumour cell line growth inhibition, 48 h

{"molecule": "COc1cccc2c1C(=O)OC2c1cccc2ccccc12 (stereo not given)", "readoutQualifier": ">", "TGI (µM)": 100}
{"molecule": "CC1CN=C(c2cccc(-c3nc(-c4cccc(C5=NCC(C)N5)c4)nc(N(C)C)n3)c2)N1 (stereo not given)", "readoutQualifier": "=", "TGI (µM)": 5.99}
{"molecule": "CC(C)/C(=N\\[N+](C)(C)C)c1ccccc1", "readoutQualifier": ">", "TGI (µM)": 100}
{"molecule": "O=c1oc2ccc(-c3ccc(F)cc3F)cc2c(=O)n1-c1ccc(Cl)c(C(F)(F)F)c1", "readoutQualifier": "=", "TGI (µM)": 2.4}
{"molecule": "CC(C)(C)OC(=O)Cn1ncn(NC(=O)Cc2ccccc2)c1=O", "readoutQualifier": ">", "TGI (µM)": 10}
{"molecule": "COc1ccc(C(=O)N/N=C/c2c(C)n(C)n(-c3ccccc3)c2=O)cc1", "readoutQualifier": ">", "TGI (µM)": 100}
{"molecule": "Cn1c(=O)c2[nH]cnc2n(CC(N)=O)c1=O", "readoutQualifier": ">", "TGI (µM)": 100}
{"molecule": "COc1nc2c(c(=O)n1C)N=C(c1ccc(Cl)cc1)CC(c1ccccc1)N2 (stereo not given)", "readoutQualifier": ">", "TGI (µM)": 100}
{"molecule": "NC(=S)N=Nc1c(O)c2ccccc2c2ccccc12", "readoutQualifier": "=", "TGI (µM)": 45.7}
{"molecule": "O=C1C2C3C=C4c5ccccc5N(c5ccccc5)C4(C2C(=O)N1c1ccc(Br)cc1)[C@H]1C(=O)N(c2ccc(Br)cc2)C(=O)[C@@H]31 (stereo not given in full)", "readoutQualifier": ">", "TGI (µM)": 100}
{"molecule": "CC(=O)NNc1nc(C)c(C(=O)NNC(=O)C(=O)Nc2ccc([N+](=O)[O-])cc2C#N)s1", "readoutQualifier": ">", "TGI (µM)": 100}
{"molecule": "COP(=O)(OC)/C(=C/c1cn(C(c2ccccc2)(c2ccccc2)c2ccccc2)cn1)NC=O", "readoutQualifier": "=", "TGI (µM)": 32}
{"molecule": "COc1cc(/C=C/c2cc(/C=C/c3ccc(O)c(OC)c3)n(C(=O)Nc3ccc(Cl)cc3)n2)ccc1O", "readoutQualifier": "=", "TGI (µM)": 5.13}
{"molecule": "CC[C@H](C)C1=C(O)[N@+]2([O-])Oc3ccc(-c4c(O)c(O)c(-c5ccc(O)cc5)c(OC(C)=O)c4OC(C)=O)cc3O[C@]2([C@@H](C)CC)C(=O)N1O", "readoutQualifier": ">", "TGI (µM)": 50}
{"molecule": "Cc1cccc(NC(=O)/C=C/c2ccc([N+](=O)[O-])cc2)c1", "readoutQualifier": ">", "TGI (µM)": 100}
{"molecule": "Cn1c(=S)c2[nH]c(SCCN3C(=O)c4ccccc4C3=O)nc2n(C)c1=O", "readoutQualifier": ">", "TGI (µM)": 100}
{"molecule": "CC(C)(C)C1=CC(=C2C=Cc3ccccc3O2)C=C(C(C)(C)C)C1=O", "readoutQualifier": "=", "TGI (µM)": 16.4}
{"molecule": "CSCCCNC(=O)c1csc(-c2csc(CCNC(=O)CNC(=O)CNC(=O)OC(C)(C)C)n2)n1", "readoutQualifier": ">", "TGI (µM)": 100}
{"molecule": "NC(=Nc1cccc(Cl)c1)c1ccccc1N", "readoutQualifier": ">", "TGI (µM)": 100}
{"molecule": "Cc1ccc(-c2nc(-c3cn(C)c4ncccc34)cs2)cc1", "readoutQualifier": "=", "TGI (µM)": 8.24}
{"molecule": "CC/C=C/C[C@H](O)[C@H]1C[C@H]2O[C@H](CC(=O)OC)C[C@H]2O1", "readoutQualifier": ">", "TGI (µM)": 100}
{"molecule": "Cc1cc(=O)[nH]c(CNC(=O)c2cccc(C(=O)NCc3cc(=O)[nH]c(C)n3)c2)n1", "readoutQualifier": ">", "TGI (µM)": 100}
{"molecule": "Cc1cc(O)c(/C=N/C(=S)Nc2ccccc2)c(=O)o1", "readoutQualifier": ">", "TGI (µM)": 100}
{"molecule": "COC(=O)/C=C\\C(C#N)(C#N)N=Cc1sccc1C", "readoutQualifier": "=", "TGI (µM)": 27.9}
{"molecule": "COc1ccc(C2C3CCCC(C3=O)C(c3ccc(OC)cc3)N2N=O)cc1 (stereo not given)", "readoutQualifier": "=", "TGI (µM)": 25.4}
{"molecule": "COc1cccc(C2C3=C(COC3=O)N(CCO)c3cc4c(cc32)OCO4)c1 (stereo not given)", "readoutQualifier": "=", "TGI (µM)": 5.1}
{"molecule": "O=C1CCCCC/C1=C\\c1ccccc1", "readoutQualifier": ">", "TGI (µM)": 100}
{"molecule": "CCCCCCCCCCCCCC(=O)CSCCNC(=O)CCNC(=O)[C@@H](O)C(C)(C)COP(=O)(O)OP(=O)(O)OCC1OC(n2cnc3c(N)ncnc32)C(O)C1OP(=O)(O)O (stereo not given in full)", "readoutQualifier": "=", "TGI (µM)": 35.5}
{"molecule": "Cc1c(C(N)=O)sc2c1c(=O)n(Cc1ccccc1)c1nnc(-c3ccc(Br)cc3)n21", "readoutQualifier": "=", "TGI (µM)": 12.7}
{"molecule": "CC12CCC3c4cc(Br)c(O)c(Br)c4CCC3C1CCC2O (stereo not given)", "readoutQualifier": "=", "TGI (µM)": 36.3}
{"molecule": "CC(=O)c1cc(C(=O)c2ccc3c(c2)Sc2ccccc2N3)c2c(C)cccn12", "readoutQualifier": "=", "TGI (µM)": 1.9}
{"molecule": "Cc1ccc(NCCN(C)C)c2c(=O)c3ccccc3sc12", "readoutQualifier": "=", "TGI (µM)": 2.52}
{"molecule": "CCOC(=O)c1ccc2c(c1)[n+](=O)c(C(C)=O)c(C(F)(F)F)n2[O-]", "readoutQualifier": "=", "TGI (µM)": 3.16}
{"molecule": "O=C(Nc1cc(Oc2cc(F)c(NC(=O)C3(C(=O)Nc4ccc(F)cc4)CC3)cc2F)ccn1)C1CC1", "readoutQualifier": "=", "TGI (µM)": 5.18}
{"molecule": "CCOC(=O)/C(=C/c1ccc(N(CCC#N)CCC#N)cc1C)NC(=O)/C=C/c1ccccc1", "readoutQualifier": ">", "TGI (µM)": 100}
{"molecule": "CN(C)CCNC(=O)c1cccc2ccc(-c3ccc(-c4ccccc4)cc3)nc12", "readoutQualifier": "=", "TGI (µM)": 11}
{"molecule": "Nc1c2c(nc3ccccc13)-c1ccccc1NCCC2", "readoutQualifier": "=", "TGI (µM)": 55.5}
{"molecule": "CN(C)c1ccc(/C=c2/c3ccccc3n3c2c2cc(F)ccc2[n+]3C)cc1", "readoutQualifier": "=", "TGI (µM)": 17.4}
{"molecule": "Cc1nc2[nH]ncn2c(=O)c1CCO", "readoutQualifier": ">", "TGI (µM)": 10}
{"molecule": "Cc1ccc2oc3c(c(Br)c(Br)n3C)c(=O)c2c1", "readoutQualifier": "=", "TGI (µM)": 41.3}

Numbers sourced from PubChem BioAssay (NCI).
